// provenance: ChEMBL document CHEMBL1909294

Below are HepSE_Combined Scores values recorded for Hepatotoxicity.
Give a plain numeric answer without units written out.

Known HepSE_Combined Scores results, listed for orientation:
INSERT INTO measurements (molecule, measurement_name, experimental_result) VALUES
  ('CCN(CC)CCNC(=O)c1cc(Cl)c(N)cc1OC [METOCLOPRAMIDE]', 'HepSE_Combined Scores', 1),
  ('CCNC(=O)CCC/C=C\C[C@@H]1[C@@H](/C=C/[C@@H](O)CCc2ccccc2)[C@H](O)C[C@@H]1O', 'HepSE_Combined Scores', 1),
  ('COC(=O)N[C@H](C(=O)N[C@@H](Cc1ccccc1)[C@@H](O)CN(Cc1ccc(-c2ccccn2)cc1)NC(=O)[C@@H](NC(=O)OC)C(C)(C)C)C(C)(C)C', 'HepSE_Combined Scores', 7);

Turning now to a further record.
Entry Clc1ccc(CO/N=C(\Cn2ccnc2)c2ccc(Cl)cc2Cl)c(Cl)c1 : HepSE_Combined Scores on Hepatotoxicity = 0
